experimentSummary: In vitro ability to displace the specific binding of [3H]diltiazem to diltiazem receptor in guinea pig skeletal muscle.
assayEndpoint: Kd

[[record]]
compound = "COc1ccc([C@@H]2Cc3c(cccc3C(F)(F)F)N(C(C)CN(C)C)C(=O)[C@@H]2C)cc1 (stereo partly specified)"
readoutvalue = "540 nM"


###

experimentSummary: In vitro ability to displace the specific binding of [3H]diltiazem to diltiazem receptor in guinea pig skeletal muscle.
Kd values by entry
assayEndpoint: Kd (nM)

[[record]]
smilesentry = "C[C@H]1C(=O)N(CCN(C)C)c2cccc(C(F)(F)F)c2C[C@H]1c1ccc(O)cc1"
readoutvalue = 1600

[[record]]
smilesentry = "COc1ccc([C@@H]2Cc3c(OC)cccc3N(CCN(C)C)C(=O)[C@@H]2OC(C)=O)cc1"
readoutvalue = 1800

[[record]]
smilesentry = "COc1ccc([C@@H]2Cc3c(cccc3C(F)(F)F)N(CCN(C)CCCCc3ccccc3)C(=O)[C@@H]2OC(C)=O)cc1"
readoutvalue = 220

[[record]]
smilesentry = "CCc1ccc([C@@H]2Cc3c(cccc3C(F)(F)F)N(CCN(C)C)C(=O)[C@@H]2C)cc1"
readoutvalue = 1000

[[record]]
smilesentry = "COc1ccc([C@@H]2Cc3ccccc3N(CCN(C)C)C(=O)[C@@H]2OC(C)=O)cc1"
readoutvalue = 5100

[[record]]
smilesentry = "COc1ccc([C@@H]2Cc3c(cccc3C(F)(F)F)N(CCN(C)C(C)C)C(=O)[C@@H]2C)cc1"
readoutvalue = 130

[[record]]
smilesentry = "C=CCN(C)CCN1C(=O)[C@H](OC(C)=O)[C@H](c2ccc(OC)cc2)Cc2c1cccc2C(F)(F)F"
readoutvalue = 420

[[record]]
smilesentry = "CC[C@H]1C(=O)N(CCN(C)C)c2cccc(C(F)(F)F)c2C[C@H]1c1ccc(OC)cc1"
readoutvalue = 600

[[record]]
smilesentry = "CNCCN1C(=O)[C@H](OC(C)=O)[C@H](c2ccc(OCCOC)cc2)Cc2c1cccc2C(F)(F)F"
readoutvalue = 5800

[[record]]
smilesentry = "CNc1ccc([C@@H]2Cc3c(cccc3C(F)(F)F)N(CCN(C)C)C(=O)[C@@H]2C)cc1"
readoutvalue = 570

[[record]]
smilesentry = "CSc1ccc([C@@H]2Cc3c(cccc3C(F)(F)F)N(CCN(C)C)C(=O)[C@@H]2C)cc1"
readoutvalue = 1100

[[record]]
smilesentry = "CNCCN1C(=O)[C@H](OC(C)=O)[C@H](c2ccc(OC)cc2)Cc2c1cccc2C(F)(F)F"
readoutvalue = 160

[[record]]
smilesentry = "COc1ccc([C@@H]2Cc3c(ccc(Br)c3OC)N(CCN(C)C)C(=O)[C@@H]2OC(C)=O)cc1"
readoutvalue = 120

[[record]]
smilesentry = "COc1ccc([C@@H]2Cc3c(OC)cccc3N(CCN(C)C)C(=O)[C@@H]2C)cc1"
readoutvalue = 400

[[record]]
smilesentry = "COc1ccc([C@@H]2Cc3c(cccc3C(F)(F)F)N(CCN(C)C(C)=O)C(=O)[C@@H]2O)cc1"
readoutvalue = 13000

[[record]]
smilesentry = "COc1ccc([C@@H]2Cc3c(C(=O)OCc4ccccc4)cccc3N(CCN(C)C)C(=O)[C@@H]2OC(C)=O)cc1"
readoutvalue = 1400

[[record]]
smilesentry = "COc1ccc([C@@H]2Cc3c(cccc3C(F)(F)F)N(CCN(C)C)C(=O)[C@@H]2C)cc1OC"
readoutvalue = 2000


###

experimentSummary: In vitro ability to displace the specific binding of [3H]diltiazem to diltiazem receptor in guinea pig skeletal muscle.
assayEndpoint: log10 of Kd (log10 of the value in nM)

[[record]]
molecule = "COc1ccc([C@@H]2Cc3c(cccc3C(F)(F)F)N(CC[N+](C)(C)C)C(=O)[C@@H]2C)cc1"
assayendpoint = "log10 of Kd"
readoutvalue = 2.92

[[record]]
molecule = "COc1ccc([C@@H]2Cc3c(ccc(Br)c3OC)N(CCN(C)C)C(=O)[C@@H]2C)cc1"
assayendpoint = "log10 of Kd"
readoutvalue = 2.08

[[record]]
molecule = "CCCN(C)CCN1C(=O)[C@H](OC(C)=O)[C@H](c2ccc(OC)cc2)Cc2c1cccc2C(F)(F)F"
assayendpoint = "log10 of Kd"
readoutvalue = 2.72

[[record]]
molecule = "CCC[C@H]1C(=O)N(CCN(C)C)c2ccccc2C[C@H]1c1ccc(OC)cc1"
assayendpoint = "log10 of Kd"
readoutvalue = 2.40

[[record]]
molecule = "C#CCN(C)CCN1C(=O)[C@H](OC(C)=O)[C@H](c2ccc(OC)cc2)Cc2c1cccc2C(F)(F)F"
assayendpoint = "log10 of Kd"
readoutvalue = 3.26

[[record]]
molecule = "CNC(=O)CN1C(=O)[C@H](OC(C)=O)[C@H](c2ccc(OC)cc2)Cc2c1cccc2C(F)(F)F"
assayendpoint = "log10 of Kd"
readoutvalue = 4.18

[[record]]
molecule = "COc1ccc([C@@H]2Cc3c(cccc3C(F)(F)F)N(CCN(C)C)C(=O)[C@@H]2O)cc1"
assayendpoint = "log10 of Kd"
readoutvalue = 2.82

[[record]]
molecule = "COc1ccc([C@@H]2Cc3c(cccc3C(F)(F)F)N(CC(C)N(C)C)C(=O)[C@@H]2C)cc1 (stereo partly drawn)"
assayendpoint = "log10 of Kd"
readoutvalue = 2.51

